Hello, the source for this data is patent US20160031992A1, in case you need it.

This section presents binders with their documented EC50 relative to chimeric antibody (ratio to chimeric antibody) values.
- assayedTarget: integrin αvβ6 on NIH3T3β6 cells (NIH3T3 cells transfected with β6)
- measurementNotes: FACS on NIH3T3β6 cells, geometric MFI against antibody concentration
Answer field: number only, no words.

Worked cases, EC50 relative to chimeric antibody (ratio to chimeric antibody) given:
| binder | assayValue |
| --- | --- |
| humanized 1A8 antibody VH2/Vκ2 (antibody, IgG1, V domains shown) VH: QVQLVQSGAEVKKPGASVKVSCKGSSYTFTDYTMHWVKLASAKTLEWIGVIDTYYGKTNYNQKFEGRATMTVDKSSSTAYMELSSLRSEDTAVYYCARGGFRRGDRPSLRYAMDSWGQGTLVTVSS VL: DIVLTQSPDSLAVSLGERATINCRASQSVSISTYSYIHWFQQKPGQPPKLLIKYASNLESGVPDRFSGSGSGTDFTLKISRVEEEDVGIYYCQHSWEIPYTFGGGTKVEIK | 2.4 |
| humanized 1A8 antibody VH1/Vκ2 (antibody, IgG1, V domains shown) VH: QVQFVQSGPELKKPGASVKVSCKGSSYTFTDYTMHWVKLAHAKTLEWIGVIDTYYGKTNYNQKFEGRATMTVDKSSSTAYMELARLRSEDSAVYYCARGGFRRGDRPSLRYAMDSWGQGTSVTVSS VL: DIVLTQSPDSLAVSLGERATINCRASQSVSISTYSYIHWFQQKPGQPPKLLIKYASNLESGVPDRFSGSGSGTDFTLKISRVEEEDVGIYYCQHSWEIPYTFGGGTKVEIK | 1.07 |
| humanized 1A8 antibody VH2/Vκ1 (antibody, IgG1, V domains shown) VH: QVQLVQSGAEVKKPGASVKVSCKGSSYTFTDYTMHWVKLASAKTLEWIGVIDTYYGKTNYNQKFEGRATMTVDKSSSTAYMELSSLRSEDTAVYYCARGGFRRGDRPSLRYAMDSWGQGTLVTVSS VL: DIVLTQSPDSLAVSLGERATINCRASQSVSISTYSYIHWFQQKPGQPPKLLIKYASNLESGVPDRFSGSGSGTDFTLNIHPVEEEDVGIYYCQHSWEIPYTFGGGTKVEIK | 3 |
| humanized 1A8 antibody VH3/Vκ1 (antibody, IgG1, V domains shown) VH: QVQLVQSGAEVKKPGASVKVSCKGSSYTFTDYTMHWVRLASAKTLEWIGVIDTYYGKTNYNQKFEGRATMTVDKSSSTAYMELSSLRSEDTAVYYCARGGFRRGDRPSLRYAMDSWGQGTLVTVSS VL: DIVLTQSPDSLAVSLGERATINCRASQSVSISTYSYIHWFQQKPGQPPKLLIKYASNLESGVPDRFSGSGSGTDFTLNIHPVEEEDVGIYYCQHSWEIPYTFGGGTKVEIK | 2.86 |

Input: Param item = humanized 1A8 antibody VH1/Vκ1 (antibody, IgG1, V domains shown) VH: QVQFVQSGPELKKPGASVKVSCKGSSYTFTDYTMHWVKLAHAKTLEWIGVIDTYYGKTNYNQKFEGRATMTVDKSSSTAYMELARLRSEDSAVYYCARGGFRRGDRPSLRYAMDSWGQGTSVTVSS VL: DIVLTQSPDSLAVSLGERATINCRASQSVSISTYSYIHWFQQKPGQPPKLLIKYASNLESGVPDRFSGSGSGTDFTLNIHPVEEEDVGIYYCQHSWEIPYTFGGGTKVEIK ; retrieve measured EC50 relative to chimeric antibody (ratio to chimeric antibody).
Output: 1.13
